Measured on: T1, hIL-17A (human, UniProt Q16552 24-155)
T1 construct: Bought protein
Assay text: ELISA on captured hIL-17A
Below is a list of entries, each paired with its recorded IL-17A binding relative to the WT value.
Express the reported value numerically, then name its unit.

>>> observed_measurement("V3 K109R (Fc fusion, Expressed in mammalian cells; not shown: human IgG1 engineered Fc from the mammalian expression vector) LRLLDHRAPVCSQPGLNCTVKNSTCLDDSWIHPRNLTPSSPKDLQIQLHFAHTQQGDLFPVAHIEWTLQTDASILYLEGAELSVLQLNTNERLCVRFEFLSKLRHHHRRWRFTFSHFVVDPGQEYEVTVHHLPKPIPDGDPNHQSKNFLVPDCEDARMKVTTPCMSSGSLWDPNITVETLEAHQLRVSFTLWNESTHYQILLTSFPHMENHSCFEHMHHIPAPRPEEFHQRSNVTLTLRNLKWCCRHQVQIQPFFSSCLNDCLRHSVTVSCPEMPDTPEPIPDYMPLW")
"45%"

Please examine the following record next.
Entry hIL17RA-ECD variant V3 (Fc fusion, also called hIL-17R-V3; hIL17R-V3; not shown: human IgG1 engineered Fc (reduced ADCC/CDC) from the expression vector) LRLLDHRAPVCSQPGLNCTVKNSTCLDDSWIHPRNLTPSSPKDLQIQLHFAHTQQGDLFPVAHIEWTLQTDASILYLEGAELSVLQLNTNERLCVRFEFLSKLRHHHKRWRFTFSHFVVDPGQEYEVTVHHLPKPIPDGDPNHQSKNFLVPDCEDARMKVTTPCMSSGSLWDPNITVETLEAHQLRVSFTLWNESTHYQILLTSFPHMENHSCFEHMHHIPAPRPEEFHQRSNVTLTLRNLKWCCRHQVQIQPFFSSCLNDCLRHSVTVSCPEMPDTPEPIPDYMPLW : reported IL-17A binding relative to the WT = ?
100%
